Ref: PubChem BioAssay AID1259407

Test system: CCRIS mutagenicity, Ames/micronucleus/aberration tests
Assay Comment: CCRIS mutagenicity studies
Condition Details: Test System: AMES SALMONELLA TYPHIMURIUM; Strain/Indicator: TA1535; Metabolic Activation: RAT, LIVER, S-9, AROCLOR 1254 (10%); Method: PREINCUBATION
Activity calls are given as the source filed them. No rule for the calls is given here.
Value Type: mutagenic call

Molecule	Target Or System	Obs Value
Nc1c(Br)cc(Br)c2c1C(=O)c1ccccc1C2=O	CCRIS mutagenicity, Ames/micronucleus/aberration tests	inactive; negative
C=C(Cl)CCl	CCRIS mutagenicity, Ames/micronucleus/aberration tests	active; positive
CC(=O)/C=C/c1ccc2c(c1)OCO2	CCRIS mutagenicity, Ames/micronucleus/aberration tests	inactive; negative
CCCCC(CC)CN (stereo not drawn)	CCRIS mutagenicity, Ames/micronucleus/aberration tests	inactive; negative
C=CCc1ccc(OC)cc1	CCRIS mutagenicity, Ames/micronucleus/aberration tests	inactive; negative
CCCCC(CC)COS(=O)(=O)O (stereo not drawn)	CCRIS mutagenicity, Ames/micronucleus/aberration tests	inactive; negative
COCC1CO1 (stereo not drawn)	CCRIS mutagenicity, Ames/micronucleus/aberration tests	active; positive
Oc1ccc(Nc2ccc3ccccc3c2)cc1	CCRIS mutagenicity, Ames/micronucleus/aberration tests	inactive; negative

###

Tested on: CCRIS mutagenicity, Ames/micronucleus/aberration tests
Assay Comment: CCRIS mutagenicity studies
Condition Details: Test System: AMES SALMONELLA TYPHIMURIUM; Strain/Indicator: TA1977; Metabolic Activation: NONE; Method: STANDARD PLATE
Active and inactive are the calls of the source. How the calls were made is not given here.
Classes used: active, inactive

Record Smiles	Group
O=[N+]([O-])c1cccc2c1[nH]c1ccccc12	inactive
Nc1cc2c(cc1[N+](=O)[O-])[nH]c1ccccc12	active
O=[N+]([O-])c1cccc2[nH]c3ccccc3c12	inactive
CC(=O)Nc1ccc2[nH]c3ccccc3c2c1	inactive

###

Tested on: CCRIS mutagenicity, Ames/micronucleus/aberration tests
Assay Comment: CCRIS mutagenicity studies
Condition Details: Test System: AMES SALMONELLA TYPHIMURIUM; Strain/Indicator: TA1535; Metabolic Activation: NONE; Method: GAS EXPOSURE
Description: The CCRIS database contains chemical records with carcinogenicity, mutagenicity, tumor promotion, and tumor inhibition test results. It was developed by the National Cancer Institute (NCI). Data are derived from studies cited in primary journals, current awareness tools, NCI reports, and other sources. Test results have been reviewed by experts in carcinogenesis and mutagenesis. CCRIS provides historical information from the years 1985 - 2011. It is no longer updated. […]
The source made the active and inactive calls. No rule for the calls is given here.
Classes used: active, inactive

Record Smiles	Group
FC(F)(Cl)Cl	inactive
C1COCCO1	inactive
CBr	active
CC=O	inactive

###

Test system: CCRIS mutagenicity, Ames/micronucleus/aberration tests
Assay Comment: CCRIS mutagenicity studies
Condition Details: Test System: AMES SALMONELLA TYPHIMURIUM; Strain/Indicator: TA98(1,8-DNP6); Metabolic Activation: NONE; Method: PREINCUBATION
Active and inactive are the calls of the source. The rule behind the calls is not given here.
Classes used: 1 (active), 0 (inactive)

Record Smiles	Group
O=[N+]([O-])c1ccc2c(c1)oc1ccccc12	1
Cn1c([N+](=O)[O-])nc2ncc(-c3ccccc3)cc21	1
O=[N+]([O-])c1ccc2c(c1)Oc1ccccc1O2	1
O=c1oc2cc([N+](=O)[O-])ccc2c2ccccc12	1
O=[N+]([O-])c1ccc2c(c1)Oc1ccc([N+](=O)[O-])cc1O2	1
O=[N+]([O-])c1cccc2oc3ccccc3c12	0

###

Tested on: CCRIS mutagenicity, Ames/micronucleus/aberration tests
Assay Comment: CCRIS mutagenicity studies
Condition Details: Test System: AMES SALMONELLA TYPHIMURIUM; Strain/Indicator: TA100; Metabolic Activation: HAMSTER, LIVER, S-9, AROCLOR 1254 (10%); Method: PREINCUBATION
From the text: The CCRIS database contains chemical records with carcinogenicity, mutagenicity, tumor promotion, and tumor inhibition test results. It was developed by the National Cancer Institute (NCI). Data are derived from studies cited in primary journals, current awareness tools, NCI reports, and other sources. Test results have been reviewed by experts in carcinogenesis and mutagenesis. CCRIS provides historical information from the years 1985 - 2011. It is no longer updated. […]
Calls of active or inactive are those of the source. The rule behind the calls is not given here.
Classes used: class 1 for active, class 0 for inactive

Compound	Group
CC(=O)NNc1ccccc1	class 0
CCC(C)(C)c1ccc(O)cc1	class 0
CCSCCC(N)C(=O)O (configuration not stated)	class 0
NC=O	class 0
CC(O)CBr (configuration not stated)	class 0
O=C1Nc2ccc(Cl)cc2C(c2ccccc2)=NC1O (configuration not stated)	class 0
O=c1nc(O)n(Cl)c(=O)n1Cl	class 0
COc1ccc([N+](=O)[O-])cc1N=Nc1c(O)c(C(=O)Nc2cccc([N+](=O)[O-])c2)cc2ccccc12	class 1
COC(=O)Nc1nc2ccccc2[nH]1	class 0
COc1ccc(C(=O)c2ccccc2O)c(O)c1	class 0
CN(C)CCO	class 0
c1ccsc1	class 0
CN(C)CCN(Cc1ccsc1)c1ccccn1	class 0
C=C(Cl)CCl	class 1
NCCO	class 0
CCCCOC(=O)c1ccccc1C(=O)OCc1ccccc1	class 0
C=C(C)C(=O)OCC(C)C	class 0

###

System: CCRIS mutagenicity, Ames/micronucleus/aberration tests
Assay Comment: CCRIS mutagenicity studies
Condition Details: Test System: AMES SALMONELLA TYPHIMURIUM; Strain/Indicator: TA1537; Metabolic Activation: RAT, LIVER, S-9; Method: STANDARD PLATE
The source made the active and inactive calls. No rule for the calls is given here.

Compound	mutagenic call
C[C@]12C=CC3=C4CCC(=O)C=C4CC[C@H]3[C@@H]1CC[C@@H]2O	inactive; negative
CC/C(=C(/CC)c1ccc(O)cc1)c1ccc(O)cc1	inactive; negative
NC(=O)c1cc[n+](COC[n+]2ccccc2/C=N/O)cc1	inactive; negative
OC[C@@H](O)[C@@H](O)CO	inactive; negative
O=C(O)CN(CC(=O)O)CC(=O)O	inactive; negative
CCOCC(O)COc1ccc(NC(=O)CC[S+](C)C)cc1 (configuration not stated)	inactive; negative
C[n+]1ccn(CCS(C)(=O)=O)c1/C=N/O	inactive; negative

###

Test system: CCRIS mutagenicity, Ames/micronucleus/aberration tests
Assay Comment: CCRIS mutagenicity studies
Condition Details: Test System: AMES SALMONELLA TYPHIMURIUM; Strain/Indicator: TA1537; Metabolic Activation: HAMSTER, LIVER, S-9, AROCLOR 1254; Method: STANDARD PLATE
Calls of active or inactive are those of the source. The rule behind the calls is not given here.
Classes used: active, inactive

Record Smiles	Group
c1ccc2cnncc2c1	inactive
O.O.O.O=C([O-])[C@H]([O-])[C@@H]([O-])C(=O)[O-].O=C([O-])[C@H]([O-])[C@@H]([O-])C(=O)[O-].[K+].[K+].[Sb+3].[Sb+3]	inactive
C[C@@H]1CC[C@@]2(OC1)O[C@H]1C[C@H]3[C@@H]4CC=C5C[C@@H](O)CC[C@]5(C)[C@H]4CC[C@]3(C)[C@H]1[C@@H]2C	inactive
O=C(O)CN(CC(=O)O)CC(=O)O	inactive
O=C(C(=O)c1ccccc1)c1ccccc1	inactive
[O]=[Zr]	inactive
Cl/C=C/C[N+]12CN3CN(CN(C3)C1)C2	inactive
C=C1CC[C@H]2C[C@@H]1C2(C)C	inactive
Nc1ccc(S(=O)(=O)Nc2nccs2)cc1	inactive
C=C(Cl)CCl	inactive
O=C([O-])c1ccccn1.O=C([O-])c1ccccn1.O=C([O-])c1ccccn1.[Cr+3]	inactive
Cc1nc2ccccc2s1	inactive
CC=O	inactive
COc1ccc2nc(N)sc2c1	active
CC/C(C)=N\O	inactive
Nc1nc(Cl)cc(Cl)n1	inactive
CCc1ccco1	inactive

###

Test system: CCRIS mutagenicity, Ames/micronucleus/aberration tests
Assay Comment: CCRIS mutagenicity studies
Condition Details: Test System: AMES SALMONELLA TYPHIMURIUM; Strain/Indicator: TA100; Metabolic Activation: RAT, LIVER, S-9, AROCLOR 1254; Method: STANDARD PLATE
Activity calls are given as the source filed them. No rule for the calls is given here. Where a SMILES comes first, the peptide text is derived from it. [ ]: non-standard residue; d: D form. pGlu = O=C1CC[C@@H](C(=O)O)N1; Thz = O=C(O)[C@@H]1CSCN1
Value Type: mutagenic call

Compound	Value Type	Obs Value
O.O.O.O=C([O-])[C@H]([O-])[C@@H]([O-])C(=O)[O-].O=C([O-])[C@H]([O-])[C@@H]([O-])C(=O)[O-].[K+].[K+].[Sb+3].[Sb+3]	mutagenic call	inactive; negative
O=C1CCC(=O)N1O	mutagenic call	inactive; negative
O=C1c2c(O)ccc(O)c2C(=O)C2C(O)=CC=C(O)C12 (stereo unspecified)	mutagenic call	inactive; negative
CC=O	mutagenic call	inactive; negative
O=[N+]([O-])c1cc2c3c(ccc2c2ccccc12)[C@H](O)[C@@H](O)C=C3	mutagenic call	active; positive
CC[C@H](C)[C@@H]([C@@H](CC(=O)N1CCC[C@H]1[C@H](OC)[C@@H](C)C(=O)N[C@@H](Cc1ccccc1)c1nccs1)OC)N(C)C(=O)[C@@H](NC(=O)[C@H](C(C)C)N(C)C)C(C)C	mutagenic call	inactive; negative
C=C(C)C(=O)OCCCCCCOC(=O)C(=C)C	mutagenic call	inactive; negative
N=C1C=CC(=C(c2ccc(N)cc2)c2ccc(N)cc2)C=C1	mutagenic call	active; positive
[O]=[Zr]	mutagenic call	inactive; negative
O=C1CC[C@@H](C(=O)N2CSC[C@H]2C(=O)O)N1 ([pGlu]-[Thz]-OH)	mutagenic call	inactive; negative
CCOCC=O	mutagenic call	inactive; negative
CCS(=O)(=O)n1ncc(Cl)c(Cl)c1=O	mutagenic call	active; positive
Oc1c(Cl)ccc(Cl)c1Cl	mutagenic call	inactive; negative
Nc1ccc(-c2ccc(Cl)cc2)cc1	mutagenic call	active; positive
CN(C)CCNS(=O)(=O)c1cccc2cccnc12	mutagenic call	inactive; negative
O=C/C=C/C=C/C=O	mutagenic call	inactive; negative
O=C(Cl)OCc1ccccc1	mutagenic call	inactive; negative
CC(C)(C)NC[C@H](O)COc1ccccc1C1CCCC1	mutagenic call	inactive; negative
COc1ccc(CNCC(O)COc2ccc3[nH]c(=O)ccc3c2)cc1OC (stereo unspecified)	mutagenic call	inactive; negative
O=C([O-])c1ccccn1.O=C([O-])c1ccccn1.O=C([O-])c1ccccn1.[Cr+3]	mutagenic call	inactive; negative
COC(=O)Nc1nc2ccc(O)cc2[nH]1	mutagenic call	inactive; negative
CN(CCCC(=O)c1cccnc1)N=O	mutagenic call	active; positive
C1COCCOCCOCCOCCO1	mutagenic call	inactive; negative
Nc1nc(Cl)cc(Cl)n1	mutagenic call	inactive; negative
C1CSCCS1	mutagenic call	inactive; negative
[Cl][Cd][Cl]	mutagenic call	inactive; negative
